target: eeAChE (Electrophorus electricus, UniProt O42275); assay: Cholinesterase inhibition, Ellman's assay; format: biochemical, electric eel; conditions: selectivity index
Sequence (O42275 24-633): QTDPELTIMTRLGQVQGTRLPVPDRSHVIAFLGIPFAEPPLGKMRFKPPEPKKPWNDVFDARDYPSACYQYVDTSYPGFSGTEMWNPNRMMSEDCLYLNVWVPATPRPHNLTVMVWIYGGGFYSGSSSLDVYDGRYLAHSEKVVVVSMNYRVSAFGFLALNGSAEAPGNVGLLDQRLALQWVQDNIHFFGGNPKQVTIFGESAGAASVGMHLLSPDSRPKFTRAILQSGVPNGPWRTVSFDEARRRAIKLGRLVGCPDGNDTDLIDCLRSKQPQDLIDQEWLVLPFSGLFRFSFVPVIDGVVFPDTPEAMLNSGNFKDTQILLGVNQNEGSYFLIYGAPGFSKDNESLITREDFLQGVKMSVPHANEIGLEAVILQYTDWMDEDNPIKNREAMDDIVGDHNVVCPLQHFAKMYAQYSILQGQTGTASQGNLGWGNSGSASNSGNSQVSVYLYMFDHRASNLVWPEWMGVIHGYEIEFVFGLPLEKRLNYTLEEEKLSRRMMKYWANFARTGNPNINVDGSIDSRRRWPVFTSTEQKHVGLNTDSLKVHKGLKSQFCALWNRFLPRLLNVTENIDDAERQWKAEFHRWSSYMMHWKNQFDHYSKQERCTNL
assay-endpoint: SI = IC50 of BChE/IC50 of AChE
Format: numeric value only, no unit, no commentary.

> print(dat)
                               smiles.input  readout.value
1  COc1cc(/C=C/C(=O)Nc2ccc(S(N)(=O)=O)cc2)ccc1OCc1ccccc1             17

Query block: State the recorded SI = IC50 of BChE/IC50 of AChE for this entry: COc1cc(/C=C/C(=O)Nc2nc3ccc(O)cc3s2)ccc1O
Result block: 1

Query block: What about O=C(Nc1nc2ccc(O)cc2s1)c1cc(O)c(O)c(O)c1 ?
Result block: 6

Query block: Can you handle COc1cc(/C=C/C(=O)Nc2ccc(S(N)(=O)=O)cc2)ccc1O next?
Result block: 5

* * *

target: eqBChE (Equus caballus); assay: biochemical
Sequence (P81908 whole entry): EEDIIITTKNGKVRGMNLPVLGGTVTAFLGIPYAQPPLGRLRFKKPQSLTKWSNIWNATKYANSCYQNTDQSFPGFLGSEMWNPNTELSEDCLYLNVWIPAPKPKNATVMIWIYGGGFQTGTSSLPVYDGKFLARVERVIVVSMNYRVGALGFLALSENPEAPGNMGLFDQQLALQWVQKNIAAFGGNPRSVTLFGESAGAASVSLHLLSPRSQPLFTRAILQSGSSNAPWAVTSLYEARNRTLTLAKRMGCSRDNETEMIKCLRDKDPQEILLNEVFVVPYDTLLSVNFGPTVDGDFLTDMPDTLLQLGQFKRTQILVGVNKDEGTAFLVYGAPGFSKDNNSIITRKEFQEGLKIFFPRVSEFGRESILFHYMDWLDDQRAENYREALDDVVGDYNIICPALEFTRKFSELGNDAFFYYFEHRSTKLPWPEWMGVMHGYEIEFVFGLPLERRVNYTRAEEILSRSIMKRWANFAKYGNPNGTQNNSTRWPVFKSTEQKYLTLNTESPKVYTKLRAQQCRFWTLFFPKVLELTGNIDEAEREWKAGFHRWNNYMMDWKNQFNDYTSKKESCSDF
So basically, if IC50 comes in under 40 µM it's yes, and if it's 40 µM or more it's no.

> print(dat)
                                   compound  answer.label
1  COc1cc(/C=C/C(=O)Nc2ccc(S(N)(=O)=O)cc2)ccc1OCc1ccccc1           yes

Query block: Is IC50 strictly under 40 µM for the entry COc1cc(/C=C/C(=O)Nc2nc3ccc(O)cc3s2)ccc1O ?
Result block: no

Query block: Same thing, different compound: NS(=O)(=O)c1ccc(NC(=O)c2cc(O)c(O)c(O)c2)cc1
Result block: yes

Query block: And what about the compound NS(=O)(=O)c1ccc(NC(=O)/C=C/c2ccc(-c3ccccc3)cc2)cc1 ?
Result block: yes

Query block: What do we get for CC(NC(=O)/C=C/c1ccc(-c2ccccc2)cc1)C(N)=O (centres unmarked) ?
Result block: no

* * *

biological target: UniProtKB O42275; assay: Cholinesterase inhibition, Ellman's assay; assay type: biochemical, electric eel; details: selectivity index
List of SI = IC50 of BChE/IC50 of AChE values.
Provide a numeric answer; units are not to be included.

Some solved cases for reference:
> print(dat)
                                   compound                  assay.endpoint  readout.value
1  NS(=O)(=O)c1ccc(NC(=O)/C=C/c2ccc(-c3ccccc3)cc2)cc1  SI = IC50 of BChE/IC50 of AChE              1
2  NS(=O)(=O)c1ccc(NC(=O)c2cc(O)c(O)c(O)c2)cc1  SI = IC50 of BChE/IC50 of AChE              9
3  CC(NC(=O)/C=C/c1ccc(-c2ccccc2)cc1)C(N)=O (centres unmarked)  SI = IC50 of BChE/IC50 of AChE              6
4  COc1cc(/C=C/C(=O)Nc2nc3ccc(O)cc3s2)ccc1OCc1ccccc1  SI = IC50 of BChE/IC50 of AChE            217

Query compound follows.
Query block: I'd like to know its SI = IC50 of BChE/IC50 of AChE. The compound in question is O=C(/C=C/c1ccc(-c2ccccc2)cc1)Nc1nc2ccc(O)cc2s1
Result block: 220

* * *

molecular target: eqBChE (Equus caballus); test: Cholinesterase inhibition, Ellman's assay; settings: read-out: IC50 (μM) ± SEM eqBChE; mean ± SEM; n = 3
assay-endpoint: IC50 (µM)
Please give a number only; it is taken to be in µM.

Query block: Consider the compound COc1cc(/C=C/C(=O)Nc2nc3ccc(O)cc3s2)ccc1OCc1ccccc1 and give its measured IC50.
Result block: 37.4

* * *

Target: human MAO-B (Homo sapiens)
Sequence (P27338 1-520): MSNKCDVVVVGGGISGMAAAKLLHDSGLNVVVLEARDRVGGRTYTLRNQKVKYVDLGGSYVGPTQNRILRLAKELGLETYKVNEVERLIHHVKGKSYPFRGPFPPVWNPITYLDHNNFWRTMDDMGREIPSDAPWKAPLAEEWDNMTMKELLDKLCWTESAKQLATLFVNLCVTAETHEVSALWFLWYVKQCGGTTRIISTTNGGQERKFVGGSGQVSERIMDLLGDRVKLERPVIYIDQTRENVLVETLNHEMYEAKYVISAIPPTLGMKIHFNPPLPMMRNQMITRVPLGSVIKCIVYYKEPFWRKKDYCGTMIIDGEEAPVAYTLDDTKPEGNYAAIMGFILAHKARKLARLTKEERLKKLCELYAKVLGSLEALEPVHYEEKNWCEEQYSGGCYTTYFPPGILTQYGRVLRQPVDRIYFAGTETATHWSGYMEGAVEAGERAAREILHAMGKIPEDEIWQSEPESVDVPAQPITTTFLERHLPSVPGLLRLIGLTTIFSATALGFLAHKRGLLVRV
Assay: MAO-B inhibition assay
Format: biochemical
Details: read-out: IC50 (μM) ± SEM MAO-B; mean ± SEM; n = 3
assay-endpoint: IC50 (µM)
Field format: number, assumed µM, no unit text.

Query block: Request - read-out IC50 | tested on human MAO-B (Homo sapiens) | compound COc1cc(/C=C/C(=O)Nc2nc3ccc(O)cc3s2)ccc1OCc1ccccc1 [Compound 22]
Result block: 0.348

* * *

target: eeAChE (Electrophorus electricus); experiment: Cholinesterase inhibition, Ellman's assay; type: biochemical, electric eel; settings: read-out: IC50 (μM) ± SEM eeAChE; mean ± SEM; n = 3
assay-endpoint: IC50 (µM)
Write the value in µM as a bare number.

Query block: # lookup: IC50 of COc1cc(/C=C/C(=O)Nc2nc3ccc(O)cc3s2)ccc1OCc1ccccc1
Result block: 0.172

* * *

target: human MAO-A (Homo sapiens, UniProt P21397); experiment: MAO-A inhibition assay; type: biochemical
Sequence (P21397 whole entry): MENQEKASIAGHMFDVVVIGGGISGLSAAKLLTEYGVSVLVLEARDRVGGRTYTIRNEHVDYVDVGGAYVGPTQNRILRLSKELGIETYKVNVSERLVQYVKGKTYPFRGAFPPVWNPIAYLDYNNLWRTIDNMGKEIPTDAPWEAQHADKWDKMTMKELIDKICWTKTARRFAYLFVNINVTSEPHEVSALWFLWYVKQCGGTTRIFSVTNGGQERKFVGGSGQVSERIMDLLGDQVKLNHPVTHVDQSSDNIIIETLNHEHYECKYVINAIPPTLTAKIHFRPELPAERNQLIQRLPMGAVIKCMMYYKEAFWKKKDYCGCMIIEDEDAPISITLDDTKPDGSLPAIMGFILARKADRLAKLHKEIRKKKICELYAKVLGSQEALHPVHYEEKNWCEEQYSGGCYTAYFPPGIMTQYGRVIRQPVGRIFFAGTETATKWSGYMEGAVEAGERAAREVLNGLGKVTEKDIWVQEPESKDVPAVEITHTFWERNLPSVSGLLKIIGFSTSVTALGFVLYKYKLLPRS
Reported pIC50 values for a set of compounds
In plain terms, pIC50 is the concentration in mol/L turned into minus its base-10 logarithm.

For orientation, consider the following solved cases.
> print(dat)
                                   compound                               system.name  assay.endpoint  readout.value
1  COc1cc(/C=C/C(=O)Nc2nc3ccc(O)cc3s2)ccc1O  human MAO-A (Homo sapiens, UniProt P21397)           pIC50           4.43
2  O=C(/C=C/c1ccc(-c2ccccc2)cc1)Nc1nc2ccc(O)cc2s1  human MAO-A (Homo sapiens, UniProt P21397)           pIC50           5.00
3  COc1cc(/C=C/C(=O)Nc2ccc(S(N)(=O)=O)cc2)ccc1O  human MAO-A (Homo sapiens, UniProt P21397)           pIC50           4.12

Query block: What does the record list as pIC50 for CC(NC(=O)/C=C/c1ccc(-c2ccccc2)cc1)C(N)=O (centres unmarked) ?
Result block: 5.00

Query block: Queued: NS(=O)(=O)c1ccc(NC(=O)/C=C/c2ccc(-c3ccccc3)cc2)cc1
Result block: 4.70

Query block: What do you get for NS(=O)(=O)c1ccc(NC(=O)c2cc(O)c(O)c(O)c2)cc1 ?
Result block: 4.67

Query block: Then O=C(Nc1nc2ccc(O)cc2s1)c1cc(O)c(O)c(O)c1 ?
Result block: 5.00

Query block: # iterate: COc1cc(/C=C/C(=O)Nc2ccc(S(N)(=O)=O)cc2)ccc1OCc1ccccc1
Result block: 4.55

* * *

molecular target: human MAO-B (Homo sapiens, UniProt P27338); assay: MAO-B inhibition assay; type: biochemical; conditions: selectivity index
assay-endpoint: SI = IC50 of MAO-A/IC50 of MAO-B
Answer with the value's number alone.

Here are 4 compounds together with their reported answers.
> print(dat)
                                   compound  readout.value
1  COc1cc(/C=C/C(=O)Nc2nc3ccc(O)cc3s2)ccc1OCc1ccccc1 [Compound 22]             55
2  O=C(Nc1nc2ccc(O)cc2s1)c1cc(O)c(O)c(O)c1 [Compound 28]             46
3  COc1cc(/C=C/C(=O)Nc2nc3ccc(O)cc3s2)ccc1O [Compound 21]             75
4  O=C(/C=C/c1ccc(-c2ccccc2)cc1)Nc1nc2ccc(O)cc2s1 [Compound 23]            270

Query block: Suppose we examine the compound NS(=O)(=O)c1ccc(NC(=O)/C=C/c2ccc(-c3ccccc3)cc2)cc1 [Compound 26] ; what SI = IC50 of MAO-A/IC50 of MAO-B value has been reported?
Result block: 60

* * *

molecular target: human MAO-B (Homo sapiens, UniProt P27338); assay: MAO-B inhibition assay; format: biochemical; settings: selectivity index
The reader will find reported SI = IC50 of MAO-A/IC50 of MAO-B values listed item by item below.
// keep it numeric: no unit symbol after the value

Query block: Please look up its SI = IC50 of MAO-A/IC50 of MAO-B: COc1cc(/C=C/C(=O)Nc2ccc(S(N)(=O)=O)cc2)ccc1OCc1ccccc1 [Compound 25]
Result block: 426

Query block: Same question for CC(NC(=O)/C=C/c1ccc(-c2ccccc2)cc1)C(N)=O (stereo not shown) [Compound 20] please.
Result block: 19

Query block: # iterate: COc1cc(/C=C/C(=O)Nc2ccc(S(N)(=O)=O)cc2)ccc1O [Compound 24]
Result block: 539

Query block: Next compound: NS(=O)(=O)c1ccc(NC(=O)c2cc(O)c(O)c(O)c2)cc1 [Compound 29]
Result block: 54
